Just for reference, paper PMC4832243 is where these values come from.

- Test system: SW-620
- Test Protocol: NCI 60 cell line panel (SRB), SW-620
- Type: cell-based
- Reported Conditions: Homo sapiens; SW-620, Colon Cancer; single dose of 10 μM; read-out: Cell Growth Percent
Assay Endpoint: activity at 10 µM (%)
Please state the figure in %; there is no need to write the unit.

O=C(Nc1ccc(Nc2ncnc3sc4c(c23)CCCC4)cc1)Nc1cccc(Cl)c1 [Compound 20d]    108
O=C(Nc1ccc(Cl)cc1)Nc1ccc(Oc2ncnc3sc4c(c23)CCCC4)cc1 [Compound 21d]    97.7
CCOC(=O)c1c(C)oc2ncnc(Nc3ccc(NC(=O)Nc4ccc(CC)cc4)cc3)c12 [Compound 15i]    113

Fill blank: measured activity at 10 µM of the compound Cc1cccc(NC(=O)Nc2ccc(Oc3ncnc4sc5c(c34)CCCC5)cc2)c1 [Compound 21b] is ____.
103
